assay.target: c-Met protein receptors on HUVEC (human, UniProt P08581 25-1390)
Sequence (P08581 25-1390): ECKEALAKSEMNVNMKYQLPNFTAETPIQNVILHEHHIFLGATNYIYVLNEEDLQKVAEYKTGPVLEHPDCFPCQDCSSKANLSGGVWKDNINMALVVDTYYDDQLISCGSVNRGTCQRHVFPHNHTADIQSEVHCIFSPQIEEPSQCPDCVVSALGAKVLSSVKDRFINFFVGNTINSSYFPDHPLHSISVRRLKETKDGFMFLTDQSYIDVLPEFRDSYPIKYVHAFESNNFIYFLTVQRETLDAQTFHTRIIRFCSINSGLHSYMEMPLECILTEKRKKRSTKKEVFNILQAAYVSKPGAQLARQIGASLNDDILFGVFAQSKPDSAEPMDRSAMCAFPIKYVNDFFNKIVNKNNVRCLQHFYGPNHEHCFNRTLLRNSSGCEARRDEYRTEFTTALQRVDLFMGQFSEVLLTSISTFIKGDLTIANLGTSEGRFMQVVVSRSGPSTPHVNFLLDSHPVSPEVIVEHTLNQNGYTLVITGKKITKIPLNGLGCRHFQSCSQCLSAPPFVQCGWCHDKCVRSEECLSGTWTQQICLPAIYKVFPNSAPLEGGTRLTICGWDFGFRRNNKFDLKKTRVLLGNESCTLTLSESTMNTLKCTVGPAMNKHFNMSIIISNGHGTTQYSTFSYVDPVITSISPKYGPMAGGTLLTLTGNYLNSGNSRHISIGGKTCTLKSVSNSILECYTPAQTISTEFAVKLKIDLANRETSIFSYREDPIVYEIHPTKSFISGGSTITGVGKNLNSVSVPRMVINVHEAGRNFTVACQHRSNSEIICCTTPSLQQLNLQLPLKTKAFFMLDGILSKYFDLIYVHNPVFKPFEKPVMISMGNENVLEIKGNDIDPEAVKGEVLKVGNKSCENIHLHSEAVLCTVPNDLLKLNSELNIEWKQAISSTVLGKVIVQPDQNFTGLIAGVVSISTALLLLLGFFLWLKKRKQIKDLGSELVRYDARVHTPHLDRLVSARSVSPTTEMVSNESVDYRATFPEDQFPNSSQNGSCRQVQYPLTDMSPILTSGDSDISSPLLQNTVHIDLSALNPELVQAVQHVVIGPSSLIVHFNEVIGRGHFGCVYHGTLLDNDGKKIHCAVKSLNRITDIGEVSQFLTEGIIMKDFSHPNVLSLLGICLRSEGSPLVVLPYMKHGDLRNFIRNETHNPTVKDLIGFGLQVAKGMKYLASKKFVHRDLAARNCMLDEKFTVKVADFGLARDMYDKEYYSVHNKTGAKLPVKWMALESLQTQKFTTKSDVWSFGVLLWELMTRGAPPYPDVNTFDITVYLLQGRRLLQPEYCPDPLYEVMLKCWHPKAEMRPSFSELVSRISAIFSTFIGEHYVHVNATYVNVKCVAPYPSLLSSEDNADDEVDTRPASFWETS
measurement.protocol: cell-based or functional assay
measured.quantity: Index 1 (Relative Migration divided by the Average 157.5), HUVEC migration assay

{"binder": "VH6/Vk2 (antibody, IgG1, V domains shown, Full IgG1/kappa expressed in HEK 293 EBNA cells) VH: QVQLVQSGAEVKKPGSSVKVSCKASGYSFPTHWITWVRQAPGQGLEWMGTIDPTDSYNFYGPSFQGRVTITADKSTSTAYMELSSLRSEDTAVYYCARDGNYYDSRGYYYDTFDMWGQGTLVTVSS VL: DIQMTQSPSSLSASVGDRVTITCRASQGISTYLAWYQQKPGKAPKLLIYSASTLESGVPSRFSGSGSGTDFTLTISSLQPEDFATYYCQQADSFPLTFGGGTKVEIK", "result": 0.979}
{"binder": "VH4/Vk0 (antibody, IgG1, V domains shown, Full IgG1/kappa expressed in HEK 293 EBNA cells) VH: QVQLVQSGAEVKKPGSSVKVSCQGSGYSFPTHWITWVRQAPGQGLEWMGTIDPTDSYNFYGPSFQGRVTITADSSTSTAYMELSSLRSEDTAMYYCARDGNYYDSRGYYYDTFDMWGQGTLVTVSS VL: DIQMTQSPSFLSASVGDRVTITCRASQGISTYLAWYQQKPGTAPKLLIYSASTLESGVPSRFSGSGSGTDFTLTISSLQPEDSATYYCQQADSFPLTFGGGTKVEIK", "result": 0.773}

Would you kindly look at the next entry?
Problem: Name the recorded Index 1 (Relative Migration divided by the Average 157.5), HUVEC migration assay for VH2/Vk2 (antibody, IgG1, V domains shown, Full IgG1/kappa expressed in HEK 293 EBNA cells) VH: EVQLVQSGAEVKKPGESLKISCKGSGYSFPTHWITWVRQMPGKGLEWMGTIDPTDSYNFYGPSFQGQVTISADKSISTAYLQWSSLKASDTAMYYCARDGNYYDSRGYYYDTFDMWGQGTLVTVSS VL: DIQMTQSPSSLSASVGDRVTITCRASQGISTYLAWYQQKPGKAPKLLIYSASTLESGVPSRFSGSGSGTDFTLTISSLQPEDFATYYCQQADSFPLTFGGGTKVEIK .
Result: 1.12
